test system: UACC-62 melanoma; assay: NCI tumour cell line growth inhibition, 48 h
RECORDED_METRIC: TGI

Study these solved cases before continuing.
{"COMPOUND": "O=C1c2cc(F)ccc2-c2c1c1ccc([N+](=O)[O-])cc1c(=O)n2CCCBr", "TGI": "77.7 µM"}
{"COMPOUND": "CCNCCNc1cc(-c2ccc(C(F)(F)F)cc2)c(C#N)c2nc3cc(Cl)c(Cl)cc3n12", "TGI": "3.57 µM"}
{"COMPOUND": "CC(=Nc1ccc(Cl)c(Cl)c1)c1ccncc1", "TGI": "> 100 µM"}

Moving on to the next compound.
-- ask // query TGI value for entry O=C1C(=O)N(c2ccc(Cl)cc2)C(=O)C(=Nc2cccc3c(=O)[nH][nH]c(=O)c23)C1c1nc2ccccc2o1 (centres undefined)
-- reply > 100 µM
